The entries below come with measured residual biofilm growth (% of control) values attached.
System: Staphylococcus aureus
Test: Antibiofilm activity against methicillin-resistant Staphylococcus aureus assessed as inhibition of biofilm formation by measuring residual biofilm growth incubated for overnight at 10-fold dilution by crystal violet staining based microtiter plate assay relative to control
Type: functional
Non-standard residues stand in square brackets, D forms with d. Residues, ends and D or L forms follow the SMILES beside them. hArg = N=C(N)NCCCC[C@H](N)C(=O)O; Dap = NC[C@H](N)C(=O)O
readout: residual biofilm growth (% of control)

>>> reading("CC[C@H](C)[C@H](NC(=O)[C@H](CCCNC(=N)N)NC(=O)[C@@H](NC(=O)[C@H](C)NC(=O)[C@@H](NC(=O)[C@@H](NC(=O)[C@H](CN)NC(=O)[C@H](CCCNC(=N)N)NC(=O)[C@@H](N)C(C)C)[C@@H](C)CC)C(C)C)C(C)C)C(=O)N[C@@H](Cc1c[nH]c2ccccc12)C(=O)N[C@@H](CCCNC(=N)N)C(=O)N[C@@H](CCCNC(=N)N)C(N)=O (H-VR[Dap]IVAVRIWRR-NH2)")
"104.7%"
>>> reading("CC[C@H](C)[C@H](NC(=O)[C@H](CCCNC(=N)N)NC(=O)[C@@H](NC(=O)[C@H](C)NC(=O)[C@@H](NC(=O)[C@@H](NC(=O)[C@H](CC(C)C)NC(=O)[C@H](CCCNC(=N)N)NC(=O)[C@@H](N)C(C)C)[C@@H](C)CC)C(C)C)C(C)C)C(=O)N[C@@H](CCCCNC(=N)N)C(=O)N[C@@H](CCCNC(=N)N)C(=O)N[C@@H](CCCNC(=N)N)C(N)=O (H-VRLIVAVRI[hArg]RR-NH2)")
"37.2%"

====

Measured residual biofilm growth (% of control) accompanies every entry in the list below.
Test system: Staphylococcus aureus
Test: Antibiofilm activity against methicillin-resistant Staphylococcus aureus assessed as inhibition of biofilm formation by measuring residual biofilm growth incubated for overnight at 10-fold dilution by crystal violet staining based microtiter plate assay relative to control
Type: functional
Non-standard residues stand in square brackets, D forms with d. Residues, ends and D or L forms follow the SMILES beside them. Agb = N=C(N)NCC[C@H](N)C(=O)O; Orn = NCCC[C@H](N)C(=O)O; Dab = NCC[C@H](N)C(=O)O
readout: residual biofilm growth (% of control) (%)

>>> reading("CC[C@H](C)[C@H](NC(=O)[C@H](CC(C)C)NC(=O)[C@H](CCCNC(=N)N)NC(=O)[C@@H](N)C(C)C)C(=O)N[C@@H](CCNC(=N)N)C(=O)N[C@@H](C)C(=O)N[C@H](C(=O)N[C@@H](CCCNC(=N)N)C(=O)N[C@H](C(=O)N[C@@H](Cc1c[nH]c2ccccc12)C(=O)N[C@@H](CCCNC(=N)N)C(=O)N[C@@H](CCCNC(=N)N)C(N)=O)[C@@H](C)CC)C(C)C (H-VRLI[Agb]AVRIWRR-NH2)")
103.2
>>> reading("CC[C@H](C)[C@H](NC(=O)[C@H](CCCNC(=N)N)NC(=O)[C@@H](NC(=O)[C@H](C)NC(=O)[C@@H](NC(=O)[C@@H](NC(=O)[C@H](CCN)NC(=O)[C@H](CCCNC(=N)N)NC(=O)[C@@H](N)C(C)C)[C@@H](C)CC)C(C)C)C(C)C)C(=O)N[C@@H](Cc1c[nH]c2ccccc12)C(=O)N[C@@H](CCCNC(=N)N)C(=O)N[C@@H](CCCNC(=N)N)C(N)=O (H-VR[Dab]IVAVRIWRR-NH2)")
48.6
>>> reading("CC[C@H](C)[C@H](NC(=O)[C@H](CCCNC(=N)N)NC(=O)[C@@H](NC(=O)[C@H](C)NC(=O)[C@@H](NC(=O)[C@@H](NC(=O)[C@H](CC(C)C)NC(=O)[C@H](CCCNC(=N)N)NC(=O)[C@@H](N)C(C)C)[C@@H](C)CC)C(C)C)C(C)C)C(=O)N[C@@H](Cc1c[nH]c2ccccc12)C(=O)N[C@@H](CCCN)C(=O)N[C@@H](CCCNC(=N)N)C(N)=O (H-VRLIVAVRIW[Orn]R-NH2)")
12.3

Values compiled from ChEMBL document CHEMBL4376833.
